tested on: XIP peptide (Xip251-270); assay: compounds binding XIP fragment 251-270 – biochemical, small-molecule microarray, fluorescence 635/667 nm, 0.5 µg/mL protein, primary screen (AID 1183); details: fluorescence 635 nm, higher = more signal
Hi there, I'd appreciate the recorded composite z-score for every entry that follows.

Query: Query composite z-score for `Cc1ccc(S(=O)(=O)N2C[C@@H](C(=O)O)[C@H](Sc3ccccc3)C[C@H]2c2ccccc2)cc1`
Reply: 0.779

Query: Query composite z-score for `COCCOC(=O)N1C(=O)[C@@]2(c3ccccc31)[C@H](c1ccc(OCCO)cc1)N1[C@H](c3ccccc3)[C@H](c3ccccc3)OC(=O)[C@H]1[C@@H]2C(=O)N1CCc2cc(OC)c(OC)cc2C1`
Reply: 0.919

Query: Query composite z-score for `CO[C@H]1O[C@H](CO)[C@@H](OC(=O)Nc2cccc(F)c2)[C@H](OC(=O)Nc2ccccc2)[C@H]1OC(=O)Nc1ccccc1`
Reply: 0.882

----------
Hi there, I'd appreciate the recorded z-score for every entry that follows.
assay: optical density shifts of acrAB sulA E. coli – strain DRC41, OD650, 48 h, E. coli filamentation inducer project, primary screen (AID 1152); settings: higher = more signal, called active from +8 up or from −8 down;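 also: E. coli MC1000 strain DRC41 lacking acrAB efflux pump and sulA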
Number, no unit, nothing else.

Query: Query z-score for `COCC(=C=CC[C@H](O)c1ccccc1OCCO)CCO`
Reply: 0.0257

Query: Query z-score for COc1cc2c(cc1O)C(c1cccs1)N(Cc1cccc(OC(F)(F)F)c1)CC2 (configuration not stated)
Reply: 0.36

Query: Query z-score for `[N-]=[N+]=NCc1ccccc1[C@@H]1OC(c2ccc(OCCCO)cc2)=N[C@]1(CCS(=O)(=O)c1ccccc1)C(=O)N1CCOCC1`
Reply: 1.79

Query: Query z-score for `CCCC=C(CCC)[C@@H](NC(=O)OCC(C)C)c1ccccc1`
Reply: -1.93

Query: Query z-score for CCCCCCCCCCC(O)C1C=CC2C(=O)NC(=O)C2N1Nc1ccc(Cl)cc1Cl (configuration not stated)
Reply: -2.32

Query: Query z-score for `CC[C@@H]1C=C(C(=O)O)[C@H](c2cccc3ccccc23)N1S(=O)(=O)c1ccc(C)cc1`
Reply: -0.453

Query: Query z-score for `[N-]=[N+]=Nc1ccccc1[C@H]1OC(c2ccc(OCCCO)cc2)=N[C@@]1(Cc1ccccc1)C(=O)N1CCOCC1`
Reply: -0.388

Query: Query z-score for `C[N+](C)(C)CCCC[C@@H]1NC(=O)[C@H]2C[C@@H](C(=O)NCCCCCCNC(=O)CS)[C@@H](c3ccc(O)cc3)N2C1=O`
Reply: -0.265

Query: Query z-score for CCN(CC)c1ccc(N2CC=CC34O[C@@H]5C=CCOC(=O)[C@@H]5[C@H]3C(=O)N(CCCCCCO)[C@@H]4C2=O)cc1 (some centres not stated)
Reply: 2.74

Query: Query z-score for `COC(=O)C(CC#Cc1ccc2c(c1)[C@]1(C(=O)N2)[C@H](c2ccccc2OCCO)N2[C@H](c3ccccc3)[C@H](c3ccccc3)OC(=O)[C@H]2[C@@H]1C(=O)O)C(=O)OC`
Reply: 0.456

Query: Query z-score for `CN(C)CCCCCCNC(=O)[C@@H]1C[C@@H]2C(=O)N3CCC[C@H]3C(=O)N2[C@@H]1c1ccc(O)cc1`
Reply: 1.12

Query: Query z-score for `C=CCOC(=O)[C@H]1[C@@H]2C(=O)O[C@@H](c3ccccc3)[C@@H](c3ccccc3)N2[C@@H](c2ccc(OCCOC(=O)[C@@H]3C[C@@H]4C(=O)N5CCC[C@H]5C(=O)N4[C@@H]3c3cccc(OCCO)c3)cc2)[C@]12C(=O)Nc1ccc(I)cc12`
Reply: -0.811

Query: Query z-score for CC(c1ccccc1)C(O)C1C=CC2C(=O)N(C)C(=O)C2N1NC(=O)OC(C)(C)C (configuration not stated)
Reply: -0.288

Query: Query z-score for `COc1ccc([Si](C)(C)[C@@H]2[C@@H](CCn3cc(CCO)nn3)O[C@]3(C(=O)N(Cc4cccc(N5C(=O)c6cccc7cccc5c67)c4)c4ccccc43)[C@H]2C)cc1`
Reply: 0.259

Query: Query z-score for `COCCCNC(=O)[C@@]1(Cc2ccccc2CN=[N+]=[N-])N=C(c2ccc(OCCCO)cc2)O[C@H]1c1ccccc1CN=[N+]=[N-]`
Reply: 1.16

Query: Query z-score for O=C1OCCC=C[C@H]2OC34C=CCN(CCN5CCOCC5)C(=O)[C@H]3N(CCCCCO)C(=O)[C@@H]4C12 (some centres not stated)
Reply: 0.725

Query: Query z-score for `CC(C)C(=C=CC[C@H](O)c1ccc(CO)o1)CCO`
Reply: -0.543

Query: Query z-score for CC(=O)n1cc(C(O)C2C=CC3C(=O)NC(=O)C3N2Nc2ccccn2)c2ccccc21 (configuration not stated)
Reply: -0.734

Query: Query z-score for `Cc1ccc(/C=C/C=O)cc1`
Reply: 1.24

Query: Query z-score for `COc1ccc(C(=O)Nc2cccc(CN3C(=O)[C@]4(O[C@H](CCn5cc(CCO)nn5)[C@@H]([Si](C)(C)c5ccc(OC)cc5)[C@@H]4C)c4ccccc43)c2)cc1`
Reply: -0.856

Query: Query z-score for `CCOC(=O)C1=CC[C@@H](c2ccccc2)N(S(=O)(=O)c2ccc(C)cc2)[C@H]1c1ccc(CC)cc1`
Reply: -0.688

Query: Query z-score for `COC(=O)[C@@]1(Cc2ccccc2)[C@H]2c3cc(C(=O)N(C)C)n(Cc4ccc(OC)c(OC)c4)c3C[C@H]2CN1C(=O)c1ccccc1`
Reply: -1.95

Query: Query z-score for `C#CCN1[C@H](/C=C/C2CC2)[C@H](Cc2ccccc2)OC(=O)[C@@H]1Cc1ccccc1`
Reply: -0.625

Query: Query z-score for `[N-]=[N+]=Nc1ccccc1C[C@]1(C(=O)N2CCCCC2)COC(c2ccc(OCCCO)cc2)=N1`
Reply: 0.891

Query: Query z-score for `NCCCCCNC(=O)[C@H]1C[C@H]2C(=O)N3CCC[C@H]3C(=O)N2[C@H]1c1ccc(O)cc1`
Reply: -0.607

Query: Query z-score for `C=C(CCCC)C(=O)CC[C@@H](OC(C)=O)c1ccc(CO)o1`
Reply: 0.0002

Query: Query z-score for `O=C(O)[C@H](Cc1ccccc1)n1cc(-c2ccccc2)nn1`
Reply: -0.695

Query: Query z-score for `COc1ccc(CCNC(=O)[C@@]2(c3ccc([N+](=O)[O-])cc3)CC(=O)N(CC34CC5CC(CC(C5)C3)C4)[C@@H]2c2ccc(CO)cc2I)cc1`
Reply: 0.655

Query: Query z-score for `COC(=O)[C@@]1(Cc2ccc(OC)cc2)[C@H]2c3cc(C(=O)N4CCCC4)n(CCCNc4ncc(C(F)(F)F)cc4Cl)c3C[C@H]2CN1C(=O)c1ccccc1`
Reply: -1.46

Query: Query z-score for O=C1C2C=CC(C(O)C=Cc3ccc([N+](=O)[O-])cc3)N(Nc3ccccc3F)C2C(=O)N1c1ccccc1 (configuration not stated)
Reply: -1.37

Query: Query z-score for `CC(=CC1CCCCC1)[C@@H](NC(=O)c1cccnc1)c1ccc(-c2ccccc2)cc1`
Reply: -2.67

Query: Query z-score for `C[N+](C)(C)CCCC[C@@H]1NC(=O)[C@@H]2C[C@H](C(=O)NCCCCCN)[C@H](c3ccc(O)cc3)N2C1=O`
Reply: 1.31

----------
Hi there, I'd appreciate the recorded composite z-score for every entry that follows.
assay: probe aNOTCH2 binding on compound microarray – biochemical, small-molecule microarray, 635/667 nm fluorescence, primary screen (AID 1121); conditions: higher = more signal;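 also: score merges feature fluorescence read at 667 nm with its signal to noise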
Number, no unit, nothing else.

Query: Query composite z-score for `COc1ccc([C@H]2C[C@H]3C(I)=C[C@@H]2C(=O)[C@]32CO2)cc1`
Reply: -0.156

Query: Query composite z-score for `CCOC(=O)C[C@H]1[C@H](OC(=O)c2ccc(-c3ccccc3)cc2)[C@@H](NC(=O)c2ccccc2)c2cc(OCCCO)ccc2N1C(=O)Cc1ccc(OC)cc1`
Reply: -0.0664

Query: Query composite z-score for `NCCCCCCNC(=O)[C@H]1C[C@H]2C(=O)N[C@@H](Cc3ccccc3)C(=O)N2[C@H]1c1cccc(OCCO)c1`
Reply: -0.0712

Query: Query composite z-score for O=C(O)C1N=C(c2ccc(OCCCO)cc2)N(c2ccccc2)O1 (centres undefined)
Reply: -0.037

----------
assay: binders of probe aHhip on microarray, primary screen, stem cell growth factor project, biochemical, small-molecule microarray, fluorescence 635/667 (AID 1087); details: higher = more signal;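 also: score merges spot fluorescence at 667nm with spot signal to noise ratio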
property-label: composite z-score
Number, no unit, nothing else.

Query: Query composite z-score for O=C1NC(=O)C2C1C=CC(C(O)c1ccc(-c3ccccc3)s1)N2Nc1ccc(Cl)cc1Cl (stereo not drawn)
Reply: -0.0645

Query: Query composite z-score for CCCCN1CC=CC23O[C@@H]4/C=C\CCCOC(=O)C4[C@H]2C(=O)N(CCCCCO)[C@@H]3C1=O (stereo partly drawn)
Reply: -0.249

Query: Query composite z-score for `COC(=O)C(CC#Cc1ccc2c(c1)[C@]1(C(=O)N2)[C@H](c2ccccc2OCCO)N2[C@H](c3ccccc3)[C@H](c3ccccc3)OC(=O)[C@H]2[C@@H]1C(=O)O)C(=O)OC`
Reply: 0.426

Query: Query composite z-score for `COCCCNC(=O)[C@@]1(Cc2ccccc2CN=[N+]=[N-])N=C(c2ccc(OCCCO)cc2)O[C@H]1c1ccccc1CN=[N+]=[N-]`
Reply: -0.286

Query: Query composite z-score for `O=C1O[C@@H](c2ccccc2)[C@@H](c2ccccc2)N2[C@@H](c3ccc(OCCO)cc3)[C@]3(C(=O)Nc4ccc(C#CC5=CCCCC5)cc43)[C@@H](C(=O)N3CCCCCCC3)[C@H]12`
Reply: 0.354

Query: Query composite z-score for `C#CCN1[C@H](/C=C/C2CC2)[C@H](Cc2ccccc2)OC(=O)[C@@H]1Cc1ccccc1`
Reply: 0.0373

Query: Query composite z-score for `C#CCNCc1ccccc1`
Reply: -0.236

Query: Query composite z-score for O=C1NC(=O)C2C1C=CC(C(O)C1CC=CCC1)N2Nc1ccccn1 (stereo not drawn)
Reply: -0.445

Measured values drawn from PubChem BioAssay for this set.
